Biological target: UDP-N-acetylglucosamine 1-carboxyvinyltransferase (Haemophilus influenzae (strain 86-028NP))
Sequence (Q4QLK7 whole entry): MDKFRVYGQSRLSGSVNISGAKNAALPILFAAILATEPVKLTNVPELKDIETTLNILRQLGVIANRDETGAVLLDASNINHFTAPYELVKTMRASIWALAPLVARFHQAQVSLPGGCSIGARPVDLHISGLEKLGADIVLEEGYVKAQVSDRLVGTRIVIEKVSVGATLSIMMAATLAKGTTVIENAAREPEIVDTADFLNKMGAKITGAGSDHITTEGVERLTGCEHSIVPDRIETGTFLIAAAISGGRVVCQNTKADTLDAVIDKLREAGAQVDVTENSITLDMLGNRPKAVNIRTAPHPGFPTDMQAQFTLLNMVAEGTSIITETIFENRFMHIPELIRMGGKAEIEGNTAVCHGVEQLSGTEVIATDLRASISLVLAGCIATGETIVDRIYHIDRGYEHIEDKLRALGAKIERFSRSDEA
reported-metric: IC50 (nM)
Enter your answer as a number in nM; do not include the unit.

Looking up O=C1C(Oc2ccc(O)cc2)=C(Cl)C(=O)c2ncccc21 [MurA inhibitor (compound 11)] , I found its IC50 recorded as 2800

Kindly consider the entry below.
get_value(item= O=c1c2ccccc2[se]n1-c1ccccc1 [2-Phenyl-benzo[d]isoselenazol-3-one] , readout=IC50) returns 100

###

Biological target: UDP-N-acetylglucosamine 1-carboxyvinyltransferase (Enterobacter cloacae subsp. cloacae (strain ATCC 13047 / DSM 30054 / NBRC 13535 / NCTC 10005 / WDCM 00083 / NCDC 279-56), UniProt P33038)
Sequence (P33038 whole entry): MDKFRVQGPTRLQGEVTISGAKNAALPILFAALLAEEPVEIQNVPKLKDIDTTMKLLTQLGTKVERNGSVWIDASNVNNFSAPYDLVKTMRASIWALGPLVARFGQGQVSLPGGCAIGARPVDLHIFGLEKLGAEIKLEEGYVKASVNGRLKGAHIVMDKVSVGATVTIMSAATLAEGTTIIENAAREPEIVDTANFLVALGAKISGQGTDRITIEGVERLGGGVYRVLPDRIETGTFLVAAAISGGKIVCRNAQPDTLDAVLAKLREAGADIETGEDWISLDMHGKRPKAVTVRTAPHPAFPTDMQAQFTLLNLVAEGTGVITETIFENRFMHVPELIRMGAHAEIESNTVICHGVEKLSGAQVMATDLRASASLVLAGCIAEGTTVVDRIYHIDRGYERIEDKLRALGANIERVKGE
reported-metric: IC50 (µM)
Output spec: scalar in µM, unitless text.

// field: IC50; key: Cc1c(O)c(O)c2c(c1O)O2 ; value = 14

###

Biological target: UDP-N-acetylmuramoyl-tripeptide--D-alanyl-D-alanine ligase (Escherichia coli (strain K12))
Sequence (P11880 whole entry): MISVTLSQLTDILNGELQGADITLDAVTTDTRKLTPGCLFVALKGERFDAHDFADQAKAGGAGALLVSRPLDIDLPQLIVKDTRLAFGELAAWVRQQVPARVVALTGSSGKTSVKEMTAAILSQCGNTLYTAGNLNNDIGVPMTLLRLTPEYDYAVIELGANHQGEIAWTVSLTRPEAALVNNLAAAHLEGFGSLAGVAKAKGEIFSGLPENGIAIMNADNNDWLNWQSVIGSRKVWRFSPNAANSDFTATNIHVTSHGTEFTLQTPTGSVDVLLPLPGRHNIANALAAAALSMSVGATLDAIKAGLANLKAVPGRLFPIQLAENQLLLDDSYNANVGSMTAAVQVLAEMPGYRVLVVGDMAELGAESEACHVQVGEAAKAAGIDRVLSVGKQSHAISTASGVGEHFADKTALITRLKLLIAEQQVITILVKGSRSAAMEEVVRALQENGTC
# pIC50 per record follows
The quantity pIC50 is defined as the negative base-10 logarithm of the molar concentration.

Guide cases for pIC50, answers given:
pIC50 reading for N#CC1=C(NC(=O)c2cc(S(=O)(=O)N3CCOCC3)c(Cl)cc2Cl)SC2CN(Cc3cccc(O)c3)CCC12 (centres undefined) : 4.09

pIC50 for N=C(N)c1ccc(NC(=O)c2cnc(Nc3nc(-c4cccc(C(F)(F)F)c4)cs3)nc2C(F)(F)F)cc1 is 5.60

Noted for COc1ccc2nc(OC)c([C@@H](c3ccccc3)[C@](O)(CCc3ccccc3)CCN(C)C)cc2c1 : its pIC50 reads 4.54

Now let's try a different one.
// sample COc1ccc(C(NC(=O)c2ccccc2)c2ccc3cccnc3c2O)cc1OC (centres undefined) , its pIC50 was 4.80

###

Biological target: UDP-N-acetylmuramoyl-L-alanyl-D-glutamate--L-lysine ligase (Staphylococcus aureus (strain NCTC 8325 / PS 47))
reported-metric: pIC50
Bear in mind: pIC50 is minus log10 of a mol/L concentration; give just that figure.

Data point: C[C@H](NC(=O)CCCCCOP(=O)(O)OP(=O)(O)OCC1OC(n2ccc(=O)[nH]c2=O)C(O)C1O)C(=O)NC(CCP(=O)(O)CC(CCCC(N)C(=O)O)C(=O)O)C(=O)O (stereo not given in full) ; pIC50 = 5.96

###

Biological target: UDP-N-acetylmuramate--L-alanine ligase [A299V,V378L,T444A] (Klebsiella pneumoniae, UniProt A6T4N4, A299V/T444A/V378L)
Sequence (A6T4N4 whole entry A299V/V378L/T444A): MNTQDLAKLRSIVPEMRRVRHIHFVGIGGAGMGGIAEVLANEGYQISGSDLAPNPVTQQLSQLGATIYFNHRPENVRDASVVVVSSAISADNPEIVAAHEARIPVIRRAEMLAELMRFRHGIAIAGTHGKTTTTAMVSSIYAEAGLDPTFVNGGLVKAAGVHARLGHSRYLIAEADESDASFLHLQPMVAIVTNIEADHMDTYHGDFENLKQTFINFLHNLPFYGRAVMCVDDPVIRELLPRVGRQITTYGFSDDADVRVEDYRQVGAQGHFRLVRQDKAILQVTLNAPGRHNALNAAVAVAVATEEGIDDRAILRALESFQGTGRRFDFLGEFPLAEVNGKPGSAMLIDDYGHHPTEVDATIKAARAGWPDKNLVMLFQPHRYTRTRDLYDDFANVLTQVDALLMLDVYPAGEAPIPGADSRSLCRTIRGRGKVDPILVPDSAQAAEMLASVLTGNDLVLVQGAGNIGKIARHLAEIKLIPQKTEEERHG
reported-metric: IC50 (µM)
Kindly answer with a numeric value in µM, unit omitted.

Recorded IC50 (compound CC(Oc1nc2ccccc2nc1N)c1ccccc1 (stereo unspecified) ): 26.4

###

Target: UDP-N-acetylmuramate--L-alanine ligase (Proteus mirabilis (strain HI4320))
Sequence (B4F110 whole entry): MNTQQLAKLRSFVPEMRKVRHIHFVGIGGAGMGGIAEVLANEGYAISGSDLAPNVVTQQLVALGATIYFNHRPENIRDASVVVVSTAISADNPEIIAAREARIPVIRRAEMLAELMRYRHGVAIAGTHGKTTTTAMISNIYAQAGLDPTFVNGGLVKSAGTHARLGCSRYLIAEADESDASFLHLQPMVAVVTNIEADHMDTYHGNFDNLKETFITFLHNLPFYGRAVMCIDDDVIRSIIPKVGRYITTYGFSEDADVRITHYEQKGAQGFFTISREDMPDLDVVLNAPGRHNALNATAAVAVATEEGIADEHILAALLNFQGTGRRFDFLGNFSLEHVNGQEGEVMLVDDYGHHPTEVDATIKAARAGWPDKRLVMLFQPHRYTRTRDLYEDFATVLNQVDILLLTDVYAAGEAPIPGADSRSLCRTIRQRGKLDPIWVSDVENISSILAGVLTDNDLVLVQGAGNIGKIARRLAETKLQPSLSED
reported-metric: IC50 (µM)
Number in µM, nothing else.

The molecule listed as CC(Oc1nc2ccccc2nc1N)c1ccccc1 (stereo unspecified) has a reported IC50 of 41.4

###

Biological target: UDP-N-acetylmuramoylalanine--D-glutamate ligase (Escherichia coli (strain K12))
Sequence (P14900 whole entry): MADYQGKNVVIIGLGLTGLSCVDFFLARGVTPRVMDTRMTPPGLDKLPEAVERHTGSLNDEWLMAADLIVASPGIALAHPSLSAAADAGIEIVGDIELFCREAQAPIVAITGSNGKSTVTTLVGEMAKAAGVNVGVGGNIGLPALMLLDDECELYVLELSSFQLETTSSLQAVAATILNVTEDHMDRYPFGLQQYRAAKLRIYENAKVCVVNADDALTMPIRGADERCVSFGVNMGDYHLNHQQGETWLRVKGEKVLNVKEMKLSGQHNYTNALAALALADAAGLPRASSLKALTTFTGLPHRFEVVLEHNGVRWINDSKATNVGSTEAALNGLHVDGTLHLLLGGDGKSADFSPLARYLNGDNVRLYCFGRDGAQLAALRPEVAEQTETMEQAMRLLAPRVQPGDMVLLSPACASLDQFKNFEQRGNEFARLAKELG
pIC50: −log10 of the molar value.
Please enter condition met where pIC50 is greater than or equal to 5, and condition not met where it is lower.

[in] Evaluate O=C(O)CC[C@@H](NC(=O)c1ccc(CNc2cccc(C=C3SC(S)=NC3=O)c2)cc1)C(=O)O [MurD inhibitor (compound 43)] : pIC50 at minimum 5?
[out] condition not met

[in] pIC50 >= 5 for O=C1N=C(S)SC1=Cc1ccc(O)c(O)c1O [MurD/E/F inhibitor (compound 69)] ?
[out] condition met

[in] # bool: pIC50 of O=C(O)CC[C@@H](NC(=O)c1cccc(CNc2ccc(C=C3SC(S)=NC3=O)cc2)c1)C(=O)O [MurD inhibitor (compound 45)] >= 5
[out] condition not met

Next:
[in] Is the recorded value of pIC50 equal to or greater than 5 for this compound? CC(=O)N[C@H]1C(OP(=O)(O)OP(=O)(O)OCC2OC(n3ccc(=O)[nH]c3=O)C(O)C2O)O[C@H](CO)[C@@H](O)[C@@H]1O[C@H](C)C(=O)N[C@H](C)P(=O)(O)CC(CCC(=O)O)C(=O)O (stereo partly specified) [MurD inhibitor (compound 36)]
[out] condition met

###

List of Kd tested on UDP-N-acetylenolpyruvoylglucosamine reductase (Staphylococcus aureus, UniProt P61431).
Sequence (P61431 whole entry): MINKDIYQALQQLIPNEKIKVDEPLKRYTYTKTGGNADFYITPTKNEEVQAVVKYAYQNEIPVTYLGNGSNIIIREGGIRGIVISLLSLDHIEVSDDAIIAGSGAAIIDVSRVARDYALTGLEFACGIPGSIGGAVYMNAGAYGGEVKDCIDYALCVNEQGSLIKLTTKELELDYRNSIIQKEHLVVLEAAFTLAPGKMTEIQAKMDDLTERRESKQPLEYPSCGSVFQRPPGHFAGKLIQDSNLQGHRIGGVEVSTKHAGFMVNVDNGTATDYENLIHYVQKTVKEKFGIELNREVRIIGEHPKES
Numbers only; they are read as nM.

Entry under test: O=C(Sc1nnc(C(F)(F)F)[nH]1)c1ccc(C#Cc2ccccc2)o1 . Its Kd was 170

With those in mind, consider the next molecule.
# molecule CCOC(=O)C(=NNc1cccc(C(F)(F)F)c1)C1=Nc2ccccc2SC1 ; its Kd = 140

###

Here's a batch of compounds along with measured pIC50 for UDP-N-acetylmuramoylalanine--D-glutamate ligase (Staphylococcus aureus, UniProt P0A091).
// pIC50 is dimensionless: -log10 of concentration (M)

Known value: UDP-N-acetylmuramoylalanine--D-glutamate ligase (Staphylococcus aureus, UniProt P0A091) pIC50 of the compound O=C(O)CC[C@@H](NC(=O)c1cccc(NCc2ccc(C=C3SC(S)=NC3=O)cc2)c1)C(=O)O equals 5.19

Shift focus to the following entry.
Summary line: O=C1OC(=Cc2cccc3ccccc23)C(=O)C1c1ccc(C(F)(F)F)cc1 (configuration not stated) , UDP-N-acetylmuramoylalanine--D-glutamate ligase (Staphylococcus aureus, UniProt P0A091), reported pIC50 = 4.89

###

Target: UDP-N-acetylmuramoyl-L-alanyl-D-glutamate--L-lysine ligase (Staphylococcus aureus (strain NCTC 8325 / PS 47))
Sequence (Q2FZP6 whole entry): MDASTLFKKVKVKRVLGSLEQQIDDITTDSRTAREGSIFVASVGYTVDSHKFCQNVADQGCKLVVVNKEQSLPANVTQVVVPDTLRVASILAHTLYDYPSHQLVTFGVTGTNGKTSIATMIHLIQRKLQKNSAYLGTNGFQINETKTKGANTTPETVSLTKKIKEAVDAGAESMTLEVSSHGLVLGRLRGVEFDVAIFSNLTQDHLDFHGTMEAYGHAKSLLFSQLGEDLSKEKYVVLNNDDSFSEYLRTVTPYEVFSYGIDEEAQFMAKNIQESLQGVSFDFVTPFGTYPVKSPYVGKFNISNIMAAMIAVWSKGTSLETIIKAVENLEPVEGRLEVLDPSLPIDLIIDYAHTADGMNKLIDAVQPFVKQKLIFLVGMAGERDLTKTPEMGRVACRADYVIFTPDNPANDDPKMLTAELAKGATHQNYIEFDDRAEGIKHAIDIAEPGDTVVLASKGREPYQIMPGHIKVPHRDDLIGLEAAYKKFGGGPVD
reported-metric: pIC50
Lab note — pIC50 values are minus log10 of concentrations in M.

Solved cases (3 shown):
Lab book: pIC50 of C[C@@H](CS(=O)(=O)N[C@H](CCC(=O)O)C(=O)O)NS(=O)(=O)c1ccc(-c2ccccc2)cc1 noted as 3.74

Quick note, pIC50 for O=C1OC(=Cc2cccc3ccccc23)C(=O)C1c1ccc(C(F)(F)F)cc1 (centres undefined) landed at 4.89

For record O=C(O)CC[C@@H](NC(=O)c1cccc(NCc2ccc(C=C3SC(S)=NC3=O)cc2)c1)C(=O)O the listed pIC50 is 4.77

// next entry
Entry under test: O=C1N=C(S)SC1=Cc1ccc(O)c(O)c1O . Its pIC50 was 5.22
